Tested on: Wolbachia pipientis
Experiment: Anti-Wolbachia Cell-Based Screen
Type: functional
Parameters: scale not given: in the data most compounds retested in dose-response had high values
Conditions: 5 µM
Hit rate of the full screen: of about 48,000 compounds, about 13,000 (27%) showed an effect of 50% or more. This is one part of the list.
Catalogue of compounds with associated Percent Effect

Compound	System	Unit Label	Percent Effect
CS(=O)(=O)NC1CC2(CCN(CC3CC3)CC2)Oc2ccccc21.O=C(O)C(F)(F)F (stereo unspecified)	Wolbachia pipientis	%	88.61
O=C(O)C(F)(F)F.O=S(=O)(NC1CCC12CCN(CC1CC1)CC2)c1ccccc1 (stereo unspecified)	Wolbachia pipientis	%	2.266
CC(C)CN(C(=O)COc1ccc(C(N)=O)cc1)C1CCN(C)CC1	Wolbachia pipientis	%	-11.28
CC(C)(C)CC(=O)NCC(=O)NS(=O)(=O)c1cccnc1	Wolbachia pipientis	%	-1.885
CN(CCC#N)C(=O)C(C)(C)Oc1ccc(C(N)=O)cc1	Wolbachia pipientis	%	113.2
Cc1nc(CNCc2ccc(N3CCC(CO)CC3)nc2)cs1	Wolbachia pipientis	%	-0.2455
COC(=O)CCN(CC1CCCO1)C(=O)CCc1ccc(OC)cc1 (stereo unspecified)	Wolbachia pipientis	%	-1.307
N[C@@H]1CC[C@H](C(=O)NCCc2nc(-c3ccccc3)cs2)C1	Wolbachia pipientis	%	11.72
O=C(CC1CC1)NCc1cn2c(n1)CN(Cc1nccs1)CC2.O=C(O)C(F)(F)F	Wolbachia pipientis	%	17.65
Fc1cc(F)cc(CN2CCC(c3cc4ncccc4cn3)CC2)c1	Wolbachia pipientis	%	115.3
CC(C)CN(c1cn[nH]c1)S(=O)(=O)c1cccc(C#N)c1	Wolbachia pipientis	%	-11.66

----------
Test system: Wolbachia pipientis
Assay: Anti-Wolbachia Cell-Based Screen
Type: functional
Parameters: scale not given: in the data most compounds retested in dose-response had high values
Settings: 5 µM
Screen size: about 48,000 compounds; about 13,000 (27%) showed an effect of 50% or more. The list shows a part of the results.

Compound	Unit Label	Percent Effect
Cc1cnn(CC2CCCCN2C(=O)c2ccnc(N(C)C)c2)c1 (stereo unspecified)	%	-6.114
Cc1cc(C)n(CC2CCCN2C(=O)c2cccnc2N(C)C)n1 (stereo unspecified)	%	118
Cc1cnn(CC2CCCCN2C(=O)c2ccc(N(C)C)nc2)c1 (stereo unspecified)	%	89.91
Cc1cnn(CC2CCCCN2C(=O)c2cccnc2N(C)C)c1 (stereo unspecified)	%	94.82
Cc1cc(Br)oc1C(=O)N1CCN(CC(N)=O)CC1	%	-14.01
Cc1cc(C)n(CC2CCCN2C(=O)c2c[nH]c3ncccc23)n1 (stereo unspecified)	%	-7.335
Cc1cc(C)n(CC2CCCN2C(=O)c2cccc3[nH]ncc23)n1 (stereo unspecified)	%	-3.123
N#Cc1cccc(CN2CCN(C(=O)C3CCC3)[C@@H]3CS(=O)(=O)C[C@@H]32)c1	%	2.28
O=C(c1cccc2c1OCO2)N1CCCC1Cn1cccn1 (stereo unspecified)	%	-0.6849
O=C(CN1CCCC1CC(=O)c1ccccc1)NCc1ccccn1 (stereo unspecified)	%	107.5
Cc1cnn(CC2CCCCN2C(=O)c2ccc3nnc(C)n3c2)c1 (stereo unspecified)	%	-9.496

----------
Test system: Wolbachia pipientis
Test: Anti-Wolbachia Cell-Based Screen
Type: functional
Parameters: scale not given: in the data most compounds retested in dose-response had high values
Conditions: 5 µM
The whole screen tested about 48,000 compounds, of which about 13,000 (27%) showed an effect of 50% or more. The list shows a part of the results.
Measured Property: Percent Effect (%)

Molecule	Meas Value
CC1CCCN1Cc1cccc(C(=O)Nc2ccc3c(c2)CCC3=O)c1 (stereo unspecified)	51.3
Cc1cc(NC(=O)C(C)N2CCN(c3nc(C)ns3)CC2)on1 (stereo unspecified)	15.5
CCC(=O)Nc1cccc(OCC(=O)N(C)Cc2nc(C)c[nH]2)c1	-12.77
CCC(=O)NC1CCCN(C(=O)Nc2cccc(COC(C)C)c2)C1 (stereo unspecified)	-15.38
CCC(=O)Nc1cccc(OCC(=O)N(C)Cc2nccn2CC)c1	-14.09
COc1cccc(NC(=O)CN(C(C)C)C2CC2)c1	1.237
CCC(=O)Nc1cccc(OCC(=O)N(C)Cc2cc(COC)[nH]n2)c1	-13.78
CCC(=O)Nc1cccc(OCC(=O)N2CC=CC2C(C)C)c1 (stereo unspecified)	89.02
CCC(=O)Nc1cccc(OCC(=O)N[C@@H]2C[C@H]3CC[C@@H]2C3)c1	110
COc1ccc(NC(=O)c2cccc(CN3CCCC3C)c2)cc1OC (stereo unspecified)	8.38
CCC(=O)Nc1cccc(OCC(=O)N2C[C@H]3CC[C@H]2C3)c1	93.75

----------
Catalogue of molecules with associated Percent Effect
Test system: Wolbachia pipientis
Assay: Anti-Wolbachia Cell-Based Screen
Assay type: functional
Parameters: scale not given: in the data most compounds retested in dose-response had high values
Details: 5 µM
Out of some 48,000 compounds screened, about 13,000 (27%) showed an effect of 50% or more. The list shows a part of the results.
Measured Property: Percent Effect (%)

Molecule	Unit Label	Meas Value
CCOC(=O)C(C)Nc1ccc(CCN2CCOCC2)cc1 (configuration not stated)	%	97.92
NC(=O)C1CCN(CCc2ccc(NC(=O)C3CCC3)cc2)CC1	%	-0.7709
CC(Nc1ccc(CCN2CCCCC2)cc1)C(=O)N(C)CCC#N (configuration not stated)	%	-7.662
CCC(Nc1ccc(CCN2CCOCC2)cc1)C(N)=O (configuration not stated)	%	92.12
CCC(Nc1ccc(Oc2ccccc2OC)cc1)C(N)=O (configuration not stated)	%	11.69
CCC(C)C(=O)Nc1ccc(CCN2CCOCC2)cc1 (configuration not stated)	%	92.28
Cc1ccc(C)c(OCCN(C)C(=O)C2CCCN2C(N)=O)c1C (configuration not stated)	%	-6.745
O=C(Nc1ccc(CCN2CCC(O)CC2)cc1)C1CCOCC1	%	8.941
CCNC(=O)C(C)NC(=O)Nc1ccccc1Cl (configuration not stated)	%	-14.58
CC(Nc1ccc(CCN2CCOCC2)cc1)C(=O)N(C)CCC#N (configuration not stated)	%	7.396
CCN1CCC(CNC(=O)C(c2ccccc2F)N(C)C)(N(C)C)CC1 (configuration not stated)	%	4.874
CN(C)c1ccc(-c2cc(C(=O)O)cc(S(=O)(=O)NC3CC3)c2)cc1	%	-6.079

----------
System: Wolbachia pipientis
Assay: Anti-Wolbachia Cell-Based Screen
Format: functional
Parameters: scale not given: in the data most compounds retested in dose-response had high values
Conditions: 5 µM
Among all 48,000 compounds or so, about 13,000 (27%) showed an effect of 50% or more. The list shows a part of the results.
Catalogue of compounds with associated Percent Effect

Compound	Unit Label	Percent Effect
Cc1noc(C)c1CN1CC2(CCN(C(=O)c3ccoc3C)C2)CC1=O (configuration not stated)	%	-6.391
O=C(Cn1cccnc1=O)NCCc1ccc2c(c1)OCCO2	%	1.93
COc1ccc(OC)c(C(=O)N(C)Cc2nnc3ccccn23)c1	%	126.3
Cc1ccc(C)c(CN(C)Cc2nnc3ccccn23)c1	%	-4.756
O=C(Cn1cnc2cc3c(cc21)OCCCO3)NCCc1ccccc1	%	66.67
CN(Cc1nnc2ccccn12)C(=O)CC1CCCCC1	%	-9.634
O=C(Cc1cc(-c2ccc3c(c2)OCO3)on1)NC1CCCC1	%	-5.202
CC1CCC(NS(=O)(=O)CC(=O)NC(C2CC2)C2CC2)CC1 (configuration not stated)	%	99.55
CN(Cc1nnc2ccccn12)C(=O)CCC1CCCC1	%	-7.535
CC(Sc1nnnn1C1CCOCC1)C(F)(F)F (configuration not stated)	%	4.015
CC1CCC(N2CCC(NS(=O)(=O)CCOC(C)C)CC2)CC1 (configuration not stated)	%	-12.56
O=C(Cn1cnc2cc3c(cc21)OCCCO3)NC1CCCC1	%	88.37

----------
Test system: Wolbachia pipientis
Assay: Anti-Wolbachia Cell-Based Screen
Format: functional
Set-up: scale not given: in the data most compounds retested in dose-response had high values
Conditions: 5 µM
About 13,000 (27%) of roughly 48,000 compounds showed an effect of 50% or more. Some of the results follow.
Measured Property: Percent Effect (%)

Molecule	System	Meas Value
O=C(CCS(=O)(=O)c1ccccc1)NC1CCOC2(CCOCC2)C1 (stereo unspecified)	Wolbachia pipientis	92.28
CCCC(Nc1nc(COCC)nc2c1CCNCC2)c1nccn1C (stereo unspecified)	Wolbachia pipientis	3.628
O=C(NCCNc1ccccn1)NC1CCOC2(CCCCC2)C1 (stereo unspecified)	Wolbachia pipientis	-19.85
CCN1CCC(N2C[C@H]3OC(=O)N(CCc4cccc(Cl)c4)[C@H]3C2)CC1	Wolbachia pipientis	-15.6
O=C(CCCc1nc2ccccc2[nH]1)N1CCCC1c1ccccn1 (stereo unspecified)	Wolbachia pipientis	-11.11
COc1ccc(S(=O)(=O)NCCC(O)c2cccs2)c(C)c1 (stereo unspecified)	Wolbachia pipientis	-2.091

----------
Catalogue of compounds with associated Percent Effect
Test system: Wolbachia pipientis
Experiment: Anti-Wolbachia Cell-Based Screen
Type: functional
Set-up: scale not given: in the data most compounds retested in dose-response had high values
Details: 5 µM
Hit rate of the full screen: of about 48,000 compounds, about 13,000 (27%) showed an effect of 50% or more. This is one part of the list.

Structure	Percent Effect, %
CC(C)(C)n1cc(CNC2CCN(C(=O)c3ccoc3)CC2)cn1.Cl	4.064
CC(C)CNC(=O)CN1C=Nc2ccccc2S1(=O)=O	-1.925
Cc1nc(NC(=O)N(C)Cc2ccoc2)nn1C	-1.976
Cc1nc(-c2ccccc2)n(CC(=O)NCC(C)C)n1	-0.5584
Cc1nc(-c2ccoc2)n(CC(=O)NCC(C)C)c1C	121.2
COc1cccn(CC(=O)N(C)Cc2ccoc2)c1=O	-6.863

Values from ChEMBL document CHEMBL3988442
